Molecular target: recombinant human GREM1 (hGREM1-His; C-terminal 10His tagged, R&D, #5190-GR) (human) (UniProt O60565)
Sequence (O60565 other isoform, or with tags, fused parts or gaps limits assumed, form in doubt): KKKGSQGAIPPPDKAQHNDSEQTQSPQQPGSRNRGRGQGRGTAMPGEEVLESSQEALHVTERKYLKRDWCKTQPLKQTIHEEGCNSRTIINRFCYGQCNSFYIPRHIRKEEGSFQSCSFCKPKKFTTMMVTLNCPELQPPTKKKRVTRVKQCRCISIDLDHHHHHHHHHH
Assay: BLI Octet, captured mAb, 100 nM GREM1 + 5 uM heparin
Measurement Type: Binding Signal with 300 sec Association (nm)
Number in nm, nothing else.

Q. Give the value of Binding Signal with 300 sec Association (nm) reported for the following: H4H2892N (antibody, human IgG4, V domains shown) VH: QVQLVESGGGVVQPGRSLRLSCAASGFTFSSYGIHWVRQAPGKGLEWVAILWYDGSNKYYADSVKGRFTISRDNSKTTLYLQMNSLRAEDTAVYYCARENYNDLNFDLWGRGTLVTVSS VL: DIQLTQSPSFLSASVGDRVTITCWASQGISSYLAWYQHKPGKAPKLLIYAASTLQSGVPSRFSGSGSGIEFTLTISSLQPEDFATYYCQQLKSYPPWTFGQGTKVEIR
A. 0.49

Q. Give the value of Binding Signal with 300 sec Association (nm) reported for the following: H4H2889N (antibody, human IgG4, V domains shown) VH: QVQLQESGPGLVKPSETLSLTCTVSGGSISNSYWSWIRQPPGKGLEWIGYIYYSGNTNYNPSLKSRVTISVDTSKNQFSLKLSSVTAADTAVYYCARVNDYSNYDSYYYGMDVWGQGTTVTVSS VL: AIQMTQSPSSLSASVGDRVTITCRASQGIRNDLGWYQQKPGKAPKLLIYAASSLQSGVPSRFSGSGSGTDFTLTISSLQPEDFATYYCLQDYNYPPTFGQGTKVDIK
A. 0.44

Q. Give the value of Binding Signal with 300 sec Association (nm) reported for the following: H4H6240P (antibody, human IgG4, V domains shown) VH: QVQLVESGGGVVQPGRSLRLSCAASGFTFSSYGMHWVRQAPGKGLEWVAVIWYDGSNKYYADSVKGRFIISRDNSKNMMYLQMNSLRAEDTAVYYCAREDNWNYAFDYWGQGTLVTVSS VL: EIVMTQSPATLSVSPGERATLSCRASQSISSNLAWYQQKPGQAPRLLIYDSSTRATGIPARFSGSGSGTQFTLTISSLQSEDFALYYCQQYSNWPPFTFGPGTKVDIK
A. 0.37

Q. Give the value of Binding Signal with 300 sec Association (nm) reported for the following: H4H6246P (antibody, human IgG4, V domains shown) VH: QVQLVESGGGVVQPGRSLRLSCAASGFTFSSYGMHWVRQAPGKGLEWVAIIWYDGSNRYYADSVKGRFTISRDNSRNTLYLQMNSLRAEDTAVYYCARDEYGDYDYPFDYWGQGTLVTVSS VL: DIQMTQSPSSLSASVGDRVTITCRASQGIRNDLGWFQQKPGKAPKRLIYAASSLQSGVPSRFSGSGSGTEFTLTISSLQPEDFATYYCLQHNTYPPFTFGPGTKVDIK
A. 0.34

Q. Give the value of Binding Signal with 300 sec Association (nm) reported for the following: H4H6270P (antibody, human IgG4, V domains shown) VH: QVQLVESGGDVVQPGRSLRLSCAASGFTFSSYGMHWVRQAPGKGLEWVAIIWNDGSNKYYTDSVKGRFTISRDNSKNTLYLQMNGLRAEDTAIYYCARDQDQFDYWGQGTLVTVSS VL: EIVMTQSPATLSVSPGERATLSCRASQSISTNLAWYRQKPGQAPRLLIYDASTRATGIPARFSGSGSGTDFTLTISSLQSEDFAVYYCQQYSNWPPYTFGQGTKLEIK
A. 0.33

Reference source for all entries: patent US20230192831A1
